Assayed target: wt human TYK2, catalytic site (Homo sapiens, UniProt P29597)
Construct: wt human TYK2, catalytic site
Sequence (P29597 897-1176 limits assumed): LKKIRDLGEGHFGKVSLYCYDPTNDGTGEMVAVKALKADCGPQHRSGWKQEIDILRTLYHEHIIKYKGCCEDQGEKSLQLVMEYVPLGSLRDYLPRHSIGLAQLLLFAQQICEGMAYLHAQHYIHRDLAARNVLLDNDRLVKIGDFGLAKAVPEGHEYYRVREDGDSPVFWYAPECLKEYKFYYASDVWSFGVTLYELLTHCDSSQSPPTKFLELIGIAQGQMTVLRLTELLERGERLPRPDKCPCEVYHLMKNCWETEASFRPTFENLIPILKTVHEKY
Assay overview: HTRF KinEASE assay, TYK2
Test parameters: 1 μM ATP; read-out: IC50, Activity Toward TYK2
Endpoint label: IC50

Problem: Fill blank: measured IC50 of the compound CCOc1cccc(Cl)c1-n1cc(Nc2cnn(C)c2)c(C(N)=O)n1 is ____.
Result: 100 to 1000 nM

Problem: Using the record for NC(=O)c1nn(-c2c(Cl)cccc2Cl)nc1Nc1ccc(C(=O)N2CCSCC2)cc1 , report its IC50.
Result: < 10 nM

Problem: For the compound Cc1cnnn1-c1ccc(Nc2nn(-c3c(Cl)cccc3Cl)nc2C(N)=O)nc1 , what IC50 is on record?
Result: 10 to 100 nM

Problem: Form field: reported IC50 of NC(=O)c1nn(-c2c(Cl)cc(F)cc2Cl)cc1Nc1ccc(C(=O)N2CCOCC2)cc1
Result: 10 to 100 nM

Problem: What value of measured IC50 is listed for NC(=O)c1nn(-c2c(Cl)cccc2Cl)cc1Nc1ccc(C(=O)N2CCC(F)(F)C2)cc1 ?
Result: < 10 nM

Problem: # get_value(readout='IC50', item= Cn1cc(Nc2cn(-c3c(Cl)cccc3Cl)nc2C(N)=O)cn1 )
Result: 100 to 1000 nM

Problem: Field request: IC50 | item: NC(=O)c1nn(-c2c(F)cccc2F)cc1Nc1ccc(C(=O)N2CCOCC2)cc1
Result: 10 to 100 nM

Problem: Looking for the measured IC50 of CCn1nc(C(F)(F)F)nc1-c1ccc(Nc2cn(-c3c(F)cccc3F)nc2C(N)=O)cc1 , can you help?
Result: < 10 nM

Problem: # lookup: IC50 of NC(=O)c1nn(-c2c(Cl)cccc2Cl)cc1Nc1ccc(C(=O)N2CC[C@H](N3CCCC3)C2)cc1
Result: < 10 nM

Problem: What value of measured IC50 is listed for CCn1ccnc1-c1ccc(Nc2cn(-c3c(Cl)cccc3Cl)nc2C(N)=O)cc1 ?
Result: 10 to 100 nM

Problem: Requested read-out: IC50. Entry: NC(=O)c1nn(-c2c(Cl)cccc2Cl)cc1Nc1ccc(-c2nnc3n2CCOC3)cc1
Result: < 10 nM

Problem: Tell me the measured IC50 of NC(=O)c1nn(-c2c(Cl)cccc2Cl)nc1Nc1ccc(C(=O)N2CCOCC2)cn1 , please.
Result: 10 to 100 nM

Problem: Look at this compound and give its reported IC50. Cn1cc(C(F)(F)F)nc1-c1ccc(Nc2cn(-c3c(F)cccc3F)nc2C(N)=O)cc1
Result: 10 to 100 nM

Problem: Record request: IC50 value, item NC(=O)c1nn(-c2c(Cl)cccc2Cl)cc1Nc1ccc(C(=O)N2CC(O)C2)cc1
Result: < 10 nM

Problem: I have this compound here, NC(=O)c1nn(-c2c(Cl)cccc2Cl)cc1Nc1ccc(-n2nc3c(c2C(F)(F)F)CCCC3)cc1 , and I need its recorded IC50.
Result: 100 to 1000 nM

Problem: Request the reported IC50 associated with Cn1nnnc1-c1ccc(Nc2cn(-c3c(Cl)cccc3Cl)nc2C(N)=O)cn1
Result: 10 to 100 nM

###

Assayed target: wt human JAK1, catalytic site (Homo sapiens, UniProt P23458)
Construct: wt human JAK1, catalytic site
Sequence (P23458 875-1153 limits assumed): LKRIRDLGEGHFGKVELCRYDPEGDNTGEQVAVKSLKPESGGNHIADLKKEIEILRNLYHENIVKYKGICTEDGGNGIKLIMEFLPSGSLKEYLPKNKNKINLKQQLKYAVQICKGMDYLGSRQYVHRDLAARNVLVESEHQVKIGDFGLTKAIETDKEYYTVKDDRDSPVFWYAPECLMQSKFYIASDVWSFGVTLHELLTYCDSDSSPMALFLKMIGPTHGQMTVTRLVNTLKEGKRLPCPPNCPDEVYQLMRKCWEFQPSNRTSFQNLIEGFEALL
Assay overview: HTRF KinEASE assay, JAK1
Test parameters: 2.5 μM ATP; read-out: IC50, Activity Toward JAK1
pIC50: −log10 of the molar value.
Can you tell me pIC50 for the items I'm about to list?

Problem: Can you share its pIC50? I mean this molecule: Cn1cnnc1-c1ccc(Nc2nn(-c3c(Cl)cccc3Cl)nc2C(N)=O)cc1
Result: 7.00 to 8.00

Problem: Entry NC(=O)c1nn(-c2c(F)cccc2Cl)cc1Nc1ccc(-n2cc3c(n2)CCOC3)cc1 has what pIC50?
Result: 6.00 to 7.00

Problem: Which pIC50 reading was recorded for the molecule CC(C)(C)NC(=O)c1ccc(Nc2cn(-c3c(Cl)cccc3Cl)nc2C(N)=O)cc1 ?
Result: 7.00 to 8.00

Problem: Dear colleague, I am looking for the recorded pIC50 of the following molecule: Cc1cnncc1-c1ccc(Nc2cn(-c3c(Cl)cccc3Cl)nc2C(N)=O)cc1
Result: 6.00 to 7.00

Problem: Requested field: pIC50. Item: NC(=O)c1nn(-c2c(Cl)cccc2Cl)cc1Nc1ccc(C(=O)N2CCOCC2)cn1
Result: 7.00 to 8.00

Problem: Please give the measured pIC50 for this molecule: NC(=O)c1nn(-c2c(Cl)cccc2Cl)cc1Nc1ccc(-c2nnccc2Cl)cc1
Result: 6.00 to 7.00

Problem: Request the reported pIC50 associated with Cc1cc(C)n(-c2ccc(Nc3cn(-c4c(Cl)cccc4Cl)nc3C(N)=O)cc2)n1
Result: 7.00 to 8.00

Problem: Sample CC(C)(C)NC(=O)c1ccc(Nc2cn(-c3c(F)cccc3F)nc2C(N)=O)cc1 — what was its pIC50?
Result: 6.00 to 7.00

Problem: Which value of pIC50 has been reported for Cc1ccn(-c2ccc(Nc3cn(-c4c(Cl)cccc4Cl)nc3C(N)=O)cc2)n1 in the records?
Result: 6.00 to 7.00

Problem: Please give the measured pIC50 for this molecule: N#Cc1cccc2nnc(-c3ccc(Nc4cn(-c5c(Cl)cccc5Cl)nc4C(N)=O)cn3)n12
Result: 7.00 to 8.00

Problem: What value of pIC50 has been recorded for this entry: COCc1nc(C(F)(F)F)nn1-c1ccc(Nc2cn(-c3c(F)cccc3Cl)nc2C(N)=O)cc1
Result: 6.00 to 7.00

Problem: Requested field: pIC50. Item: Cc1ncn(C)c1-c1ccc(Nc2cn(-c3c(Cl)cccc3Cl)nc2C(N)=O)cc1
Result: 7.00 to 8.00

Problem: Form field: reported pIC50 of CN(C)[C@@H]1CCN(C(=O)c2ccc(Nc3nn(-c4c(Cl)cccc4Cl)nc3C(N)=O)nc2)C1
Result: 7.00 to 8.00

Problem: Dear colleague, I am looking for the recorded pIC50 of the following molecule: Cc1ccn(-c2ccc(Nc3cn(-c4c(F)cccc4Cl)nc3C(N)=O)cc2)n1
Result: 7.00 to 8.00

Problem: Which pIC50 is listed for NC(=O)c1nn(-c2c(Cl)cccc2Cl)nc1Nc1ccc(C(=O)N2CCS(=O)(=O)CC2)cn1 ?
Result: 7.00 to 8.00

Problem: Entry NC(=O)c1nn(-c2c(Cl)cccc2Cl)cc1Nc1ccc(C(=O)N2CCS(=O)(=O)CC2)nc1 has what pIC50?
Result: 7.00 to 8.00

Problem: Value lookup for pIC50; key = CN1CCN(C(=O)c2ccc(Nc3cn(-c4c(Cl)cccc4Cl)nc3C(N)=O)cc2)CC1
Result: 7.00 to 8.00

Problem: What value of pIC50 has been recorded for this entry: NC(=O)c1nn(-c2c(Cl)cccc2Cl)cc1Nc1ccc(-n2cc3c(n2)CCOC3)cc1
Result: 6.00 to 7.00

Problem: For CN(C)CCn1ccnc1-c1ccc(Nc2cn(-c3c(Cl)cccc3Cl)nc2C(N)=O)cc1 , what is its reported pIC50?
Result: 6.00 to 7.00

Problem: # pIC50 lookup, item NC(=O)c1nn(-c2c(Cl)cccc2Cl)cc1Nc1ccc(C(=O)N2CC[C@H](N3CCCC3)C2)cc1
Result: 6.00 to 7.00

Problem: Consider the molecule CCc1cncnc1-c1ccc(Nc2cn(-c3c(Cl)cccc3Cl)nc2C(N)=O)cc1 and give its measured pIC50.
Result: 6.00 to 7.00

Problem: Reported pIC50, molecule N#Cc1cccc(F)c1-n1cc(Nc2ccc(C(=O)N3CCOCC3)cc2)c(C(N)=O)n1 : ____
Result: 7.00 to 8.00

Problem: May I ask what pIC50 has been recorded for NC(=O)c1nn(-c2c(Cl)ccc(F)c2F)nc1Nc1ccc(C(=O)N2CC[C@@H](F)C2)cc1 ?
Result: 7.00 to 8.00

Problem: Bench note: what pIC50 did NC(=O)c1nn(-c2c(Cl)cccc2Cl)cc1Nc1ccc(-c2cccnn2)cc1 show?
Result: 7.00 to 8.00

Problem: Recorded pIC50 of N#CC1CN(C(=O)c2ccc(Nc3nn(-c4c(Cl)cccc4Cl)nc3C(N)=O)cc2)C1 , please.
Result: 6.00 to 7.00

Problem: I'd like to know its pIC50. The molecule in question is CN(C)Cc1nc(C(F)(F)F)nn1-c1ccc(Nc2cn(-c3c(Cl)cccc3Cl)nc2C(N)=O)cc1
Result: 6.00 to 7.00

Problem: Quick one: pIC50 of NC(=O)c1nn(-c2c(Cl)cccc2Cl)cc1Nc1ccc(C(=O)N2CC[C@@H](N3CCCC3)C2)nc1 ?
Result: 6.00 to 7.00

Problem: If you can, please state the reported pIC50 value of NC(=O)c1nn(-c2c(Cl)ccc(F)c2Cl)cc1Nc1ccc(C(=O)N2CCOCC2)cc1 .
Result: 7.00 to 8.00

Problem: Need pIC50 of CC(C)Oc1ccc(Nc2cn(-c3c(Cl)cccc3Cl)nc2C(N)=O)cc1 , thanks.
Result: 6.00 to 7.00

Problem: What measured pIC50 goes with NC(=O)c1nn(-c2c(Cl)cccc2Cl)cc1Nc1ccc(C(=O)N2CC[C@@H](F)C2)cc1 ?
Result: 7.00 to 8.00

Problem: Reported pIC50 for CCNC(=O)c1ccc(Nc2cn(-c3c(Cl)cccc3Cl)nc2C(N)=O)cc1 : what is it?
Result: 7.00 to 8.00

Problem: # pIC50 lookup, item NC(=O)c1nn(-c2c(F)cccc2Cl)cc1Nc1ccc(-c2nnc3n2CCCC3)cc1
Result: 7.00 to 8.00
